- System: Pseudomonas aeruginosa IID 5142
- assay.info: antimicrobial activity, minimum inhibitory concentration, Pseudomonas aeruginosa IID 5142
- Type: cell-based
- conditions: IID5142
property: MIC

Example compounds with recorded MIC:
| compound | MIC |
| --- | --- |
| CO[C@@]1(NC(=O)[C@H](NC(=O)c2cnc3cccnc3c2O)c2ccc(O)cc2)C(=O)N2C(C(=O)O)=C(COC(N)=O)CS[C@@H]21 | 3.13 µg/mL |
| COC1(NC(=O)C(NC(=O)c2cnccc2O)c2cccs2)C(=O)N2C(C(=O)O)=C(CSc3nnnn3C)CSC21 (stereo not drawn) | 6.25 µg/mL |
| COC1(NC(=O)C(NC(=O)c2cnccc2O)c2cccc(O)c2)C(=O)N2C(C(=O)O)=C(CSc3nnc(CO)s3)CSC21 (stereo not drawn) | 12.5 µg/mL |
| COC1(NC(=O)C(NC(=O)c2cnc3sccc3c2O)c2ccc(O)cc2)C(=O)N2C(C(=O)O)=C(CSc3nnnn3C)CSC21 (stereo not drawn) | 6.25 µg/mL |
| COc1cc(C(NC(=O)c2cnc3cccnc3c2O)C(=O)NC2(OC)C(=O)N3C(C(=O)O)=C(COC(N)=O)CSC32)ccc1O (stereo not drawn) | 3.13 µg/mL |
| CO[C@@]1(NC(=O)C(NC(=O)c2cnc3nc(N4CCCC4)cnc3c2O)c2ccc(O)cc2)C(=O)N2C(C(=O)O)=C(CSc3n[nH]c(=S)s3)CS[C@@H]21 (stereo partly drawn) | 6.25 µg/mL |

Looking up COC1(NC(=O)C(NC(=O)c2cnccc2O)C2=CCC=CC2)C(=O)N2C(C(=O)O)=C(COC(N)=O)CSC21 (stereo not drawn) , I found its MIC recorded as 12.5 µg/mL

Looking up CO[C@@]1(NC(=O)C(NC(=O)c2cncnc2O)c2ccccc2)C(=O)N2C(C(=O)O)=C(COC(N)=O)CS[C@@H]21 (stereo partly drawn) , I found its MIC recorded as 12.5 µg/mL

Looking up COC1(NC(=O)C(NC(=O)c2cnc3cncnc3c2O)c2ccc(O)cc2)C(=O)N2C(C(=O)[O-])=C(C[n+]3ccc(C(N)=O)cc3)CSC21 (stereo not drawn) , I found its MIC recorded as 12.5 µg/mL

* * *

The compounds listed here are annotated with their MIC.
- System: Proteus vulgaris HX 19
- assay.info: antimicrobial activity, minimum inhibitory concentration, Proteus vulgaris HX 19
- Type: cell-based
- conditions: HX19
Give the figure together with its unit, number first.

| compound | MIC |
| --- | --- |
| COC1(NC(=O)C(NC(=O)c2cnc3sccc3c2O)c2ccc(O)cc2)C(=O)N2C(C(=O)O)=C(CSc3nnnn3C)CSC21 (stereo not drawn) | 0.78 mg/L |
| CNc1nnc(SCC2=C(C(=O)O)N3C(=O)[C@](NC(=O)C(NC(=O)c4cnc5ccc(OC)nc5c4O)c4ccc(O)c(Cl)c4)(OC)[C@H]3SC2)s1 (stereo partly drawn) | 0.39 mg/L |

Turning to the following compound.
Looking up CO[C@@]1(NC(=O)C(NC(=O)c2cncnc2O)c2ccc(O)cc2)C(=O)N2C(C(=O)O)=C(CSc3nnnn3C)CS[C@@H]21 (stereo partly drawn) , I found its MIC recorded as 0.39 mg/L

* * *

- System: Escherichia coli NIHJ
property: MIC

Example compounds with recorded MIC:
| compound | MIC |
| --- | --- |
| COc1cc(C(NC(=O)c2cnc3cccnc3c2O)C(=O)NC2(OC)C(=O)N3C(C(=O)O)=C(COC(N)=O)CSC32)ccc1O (stereo not drawn) [Example 39] | 3.13 µg/mL |
| COC1(NC(=O)C(NC(=O)c2cnccc2O)c2cccs2)C(=O)N2C(C(=O)O)=C(CSc3nnnn3C)CSC21 (stereo not drawn) [Example 34] | 12.5 µg/mL |
| CO[C@@]1(NC(=O)C(NC(=O)c2cnccc2O)c2ccccc2)C(=O)N2C(C(=O)[O-])=C(C[n+]3ccccc3)CS[C@@H]21 (stereo partly drawn) [Example 16] | 12.5 µg/mL |

Entry COC1(NC(=O)C(NC(=O)c2cnc3cn[nH]c3c2O)c2ccc(O)cc2)C(=O)N2C(C(=O)O)=C(CSc3nnnn3C)CSC21 (stereo not drawn) [Example 46] under Escherichia coli NIHJ had MIC of 1.56 µg/mL

Entry CO[C@@]1(NC(=O)C(NC(=O)c2cnc3nc(SC)ncc3c2O)c2ccc(O)cc2)C(=O)N2C(C(=O)O)=C(COC(N)=O)CS[C@@H]21 (stereo partly drawn) [Example 18] under Escherichia coli NIHJ had MIC of 12.5 µg/mL

Entry CO[C@@]1(NC(=O)C(NC(=O)c2cnccc2O)c2ccc(O)cc2)C(=O)N2C(C(=O)O)=C(CSc3nnnn3C)CS[C@@H]21 (stereo partly drawn) [Example 9] under Escherichia coli NIHJ had MIC of 12.5 µg/mL
